Origin of measurements: patent EP4640709A1

Biological target: T1, human CX3CR1 (human, UniProt P49238 1-355)
T1 sequence: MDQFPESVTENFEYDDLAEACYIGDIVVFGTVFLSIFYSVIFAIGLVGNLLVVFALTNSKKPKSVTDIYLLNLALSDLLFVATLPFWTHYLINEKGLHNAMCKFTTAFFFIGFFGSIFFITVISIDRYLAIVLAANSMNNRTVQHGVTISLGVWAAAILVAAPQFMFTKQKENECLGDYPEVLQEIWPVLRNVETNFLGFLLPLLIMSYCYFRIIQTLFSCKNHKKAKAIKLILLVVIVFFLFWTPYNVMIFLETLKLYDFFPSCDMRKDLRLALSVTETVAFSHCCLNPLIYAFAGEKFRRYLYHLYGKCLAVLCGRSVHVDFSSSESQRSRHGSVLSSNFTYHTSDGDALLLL
Assay: cell-based or functional assay
Metric Name: Cell migration inhibitory activity (IC50, nM)
Answers are plain numbers, in nM.

Requested read-out: Cell migration inhibitory activity (IC50, nM). Entry: h1F8-2-4 (antibody, V domains shown, Humanized antibody; also called humanized 1F8 antibody h1F8-2-4) VH: QVQLVQSGAEVKKPGSSVKVSCKASGFTFTNYWMQWIRQAPGQGLEWIGAIYPGSGESRYTRKFKGRVTITADKSTSTAYMELSSLRSEDTAVYYCARWAGYSRNAAYWGQGTLVTVSS VL: DIVMTQTPLSLPVTPGEPASISCRSRQSIVHSSGNTYLEWYLQKPGQSPQLLIYKVSNRFSGVPDRFSGSGSGTDFTLKISRVEAEDVGVYYCFQGSHIPPTFGGGTKVEIK
2.61
